- method: Permeation of estradiol and levonorgestrel across adult male human cadaver skin
- Format: in vitro ADME
quantity: Estradiol/Levonorgestrel Rate/Ratio

Some molecules with recorded Estradiol/Levonorgestrel Rate/Ratio:
>  <molecule>
CCCCCCCCCCO

>  <Estradiol/Levonorgestrel Rate/Ratio>
2.4 (0.21)

$$$$
>  <molecule>
Cc1c(C)c2c(c(C)c1O)CCC(C)(CCCC(C)CCCC(C)CCCC(C)C)O2 (racemic)

>  <Estradiol/Levonorgestrel Rate/Ratio>
1.6 (0.10)

$$$$
>  <molecule>
CCCCCCCCCCCCCCCC(=O)OC/C=C(C)/C=C/C=C(C)/C=C/C1=C(C)CCCC1(C)C [Retinyl Palmitate, retinyl palmitate]

>  <Estradiol/Levonorgestrel Rate/Ratio>
1.0 (0.13)

$$$$
>  <molecule>
CC1=C(/C=C/C(C)=C/C=C/C(C)=C/CO)C(C)(C)CCC1

>  <Estradiol/Levonorgestrel Rate/Ratio>
1.5 (0.11)

$$$$
>  <molecule>
CC(=O)Oc1c(C)c(C)c2c(c1C)CCC(C)(CCCC(C)CCCC(C)CCCC(C)C)O2 (racemic) [dl-alpha-Tocopherol Acetate]

>  <Estradiol/Levonorgestrel Rate/Ratio>
1.0 (0.07)

$$$$

input: Name the reported Estradiol/Levonorgestrel Rate/Ratio value associated with the molecule CC1=C(/C=C/C(C)=C/C=C/C(C)=C/C(=O)O)C(C)(C)CCC1
output: 1.4 (0.16)

---

Below is a list of entries, each paired with its recorded Permeation Rate, Estradiol value.
- method: Permeation of estradiol and levonorgestrel across adult male human cadaver skin
- Assay type: in vitro ADME

Some compounds with recorded Permeation Rate, Estradiol:
>  <compound>
Cc1c(C)c2c(c(C)c1O)CCC(C)(CCCC(C)CCCC(C)CCCC(C)C)O2 (racemic) [dl-alpha-Tocopherol]

>  <Permeation Rate, Estradiol>
0.20 (0.031) mcg/sq. cm/hr

$$$$
>  <compound>
CC(=O)Oc1c(C)c(C)c2c(c1C)CCC(C)(CCCC(C)CCCC(C)CCCC(C)C)O2 (racemic) [dl-alpha-Tocopherol Acetate]

>  <Permeation Rate, Estradiol>
0.18 (0.024) mcg/sq. cm/hr

$$$$
>  <compound>
CC1=C(/C=C/C(C)=C/C=C/C(C)=C/CO)C(C)(C)CCC1 [Retinol, retinol]

>  <Permeation Rate, Estradiol>
0.21 (0.040) mcg/sq. cm/hr

$$$$
>  <compound>
CC1=C(/C=C/C(C)=C/C=C/C(C)=C/C(=O)O)C(C)(C)CCC1 [Retinoic Acid, retinoic acid]

>  <Permeation Rate, Estradiol>
0.22 (0.033) mcg/sq. cm/hr

$$$$

Consider the additional compound presented here.
input: Name the reported Permeation Rate, Estradiol value associated with the compound CCCCCCCCCCCCCCCC(=O)OC/C=C(C)/C=C/C=C(C)/C=C/C1=C(C)CCCC1(C)C [Retinyl Palmitate, retinyl palmitate]
output: 0.18 (0.030) mcg/sq. cm/hr

---

- method: Permeation of estradiol and levonorgestrel across adult male human cadaver skin
- Assay type: in vitro ADME
Below is a list of entries, each paired with its recorded Permeation Rate, Levonorgestrel value.

>  <compound>
CC1=C(/C=C/C(C)=C/C=C/C(C)=C/CO)C(C)(C)CCC1

>  <measValue>
0.141 (0.019) mcg/sq. cm/hr

$$$$
>  <compound>
Cc1c(C)c2c(c(C)c1O)CCC(C)(CCCC(C)CCCC(C)CCCC(C)C)O2 (racemic)

>  <measValue>
0.127 (0.021) mcg/sq. cm/hr

$$$$
>  <compound>
CC(=O)Oc1c(C)c(C)c2c(c1C)CCC(C)(CCCC(C)CCCC(C)CCCC(C)C)O2 (racemic) [dl-alpha-Tocopherol Acetate]

>  <measValue>
0.182 (0.029) mcg/sq. cm/hr

$$$$
>  <compound>
CC1=C(/C=C/C(C)=C/C=C/C(C)=C/C(=O)O)C(C)(C)CCC1

>  <measValue>
0.159 (0.024) mcg/sq. cm/hr

$$$$

input: Name the reported Permeation Rate, Levonorgestrel value associated with the compound CCCCCCCCCCCCCCCC(=O)OC/C=C(C)/C=C/C=C(C)/C=C/C1=C(C)CCCC1(C)C [Retinyl Palmitate, retinyl palmitate]
output: 0.176 (0.027) mcg/sq. cm/hr

These entries and their values trace back to patent US5023084A.
